B1: FERM and PDZ domain-containing protein 4, residues 75 to 154; numbered along this chain, Q14CM0 (parent)
chain: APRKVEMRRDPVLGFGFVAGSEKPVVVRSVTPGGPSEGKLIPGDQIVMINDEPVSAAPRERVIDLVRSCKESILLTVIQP

variants of: B1; experiment: abundance fitness (aPCA) (normalised: wild type 0, dead -1); higher = more abundant; growth selection in yeast, the domain comes from the species named; details: Homo sapiens
measurement.label: abundance fitness

{"columns": ["mutation.key", "measured"],
 "data": [
  ["V62G", -0.936],
  ["S36L", -0.867],
  ["S21R", -0.082],
  ["E22C", -0.074],
  ["P2L", -0.015],
  ["V26L", -0.038],
  ["S68V", -0.17],
  ["G14V", -0.779],
  ["N50G", 0],
  ["L65H", -0.205],
  ["P24E", -0.51],
  ["A1V", -0.207],
  ["R9Q", -0.3],
  ["V54G", -0.993],
  ["Q45V", -0.123],
  ["P53H", -0.03],
  ["R28N", 0.001],
  ["E22P", -0.979],
  ["Q45S", -0.102],
  ["F17Y", -0.395],
  ["Q79R", 0.074],
  ["I49W", -0.779],
  ["S29G", -0.055],
  ["I49E", -0.894],
  ["N50T", -0.597],
  ["M48G", -0.025],
  ["T31M", -0.067],
  ["P80N", -0.058],
  ["D51R", -0.069],
  ["Q79I", -0.425],
  ["D51S", -0.039],
  ["R28Q", 0.027],
  ["K70I", -0.311],
  ["I78G", -0.079],
  ["E60Y", -0.178],
  ["E60L", -0.137],
  ["A1E", -0.329],
  ["R8D", 0.029],
  ["D64E", -0.011],
  ["G20N", -0.089],
  ["Q45F", -0.247],
  ["P35E", -0.35],
  ["L40F", -0.8],
  ["V30M", -0.335],
  ["T31Y", -0.117],
  ["V25H", -0.135],
  ["S72T", -0.011],
  ["C69R", -0.119],
  ["P24Q", -0.472],
  ["F15Y", -0.039],
  ["R9M", -0.149],
  ["R8V", -0.038],
  ["V25E", -0.796],
  ["V77L", -0.105],
  ["A57W", 0.016],
  ["L75W", -0.629],
  ["S68C", -0.082],
  ["C69I", -0.19],
  ["V25M", 0.157],
  ["V18A", -0.058],
  ["V12F", -0.089],
  ["R3Y", -0.197],
  ["P24H", -0.501],
  ["P24M", -0.53],
  ["G43L", -0.284],
  ["K70V", -0.168],
  ["V25T", 0.004],
  ["R67C", -0.055],
  ["E37P", -0.985],
  ["Q45A", -0.084],
  ["K70M", -0.17],
  ["L65V", -0.105],
  ["V54K", -1.21],
  ["V26Q", -0.011],
  ["E60M", -0.048],
  ["L74N", -0.035],
  ["R59L", 0.007],
  ["V5R", -0.679],
  ["V12W", -0.14],
  ["E6P", -0.184],
  ["C69G", -0.209],
  ["S36Y", -0.927],
  ["V27K", -0.916],
  ["P2E", 0.044],
  ["Q79K", -0.029],
  ["G16Q", -0.889],
  ["R67L", -0.105],
  ["S29P", -0.826],
  ["P42E", -0.024],
  ["L65Y", -0.076]
]}
